# IC50 listing for each entry below
Target: UniProt:Q9Y4K0
Sequence (Q9Y4K0 26-774): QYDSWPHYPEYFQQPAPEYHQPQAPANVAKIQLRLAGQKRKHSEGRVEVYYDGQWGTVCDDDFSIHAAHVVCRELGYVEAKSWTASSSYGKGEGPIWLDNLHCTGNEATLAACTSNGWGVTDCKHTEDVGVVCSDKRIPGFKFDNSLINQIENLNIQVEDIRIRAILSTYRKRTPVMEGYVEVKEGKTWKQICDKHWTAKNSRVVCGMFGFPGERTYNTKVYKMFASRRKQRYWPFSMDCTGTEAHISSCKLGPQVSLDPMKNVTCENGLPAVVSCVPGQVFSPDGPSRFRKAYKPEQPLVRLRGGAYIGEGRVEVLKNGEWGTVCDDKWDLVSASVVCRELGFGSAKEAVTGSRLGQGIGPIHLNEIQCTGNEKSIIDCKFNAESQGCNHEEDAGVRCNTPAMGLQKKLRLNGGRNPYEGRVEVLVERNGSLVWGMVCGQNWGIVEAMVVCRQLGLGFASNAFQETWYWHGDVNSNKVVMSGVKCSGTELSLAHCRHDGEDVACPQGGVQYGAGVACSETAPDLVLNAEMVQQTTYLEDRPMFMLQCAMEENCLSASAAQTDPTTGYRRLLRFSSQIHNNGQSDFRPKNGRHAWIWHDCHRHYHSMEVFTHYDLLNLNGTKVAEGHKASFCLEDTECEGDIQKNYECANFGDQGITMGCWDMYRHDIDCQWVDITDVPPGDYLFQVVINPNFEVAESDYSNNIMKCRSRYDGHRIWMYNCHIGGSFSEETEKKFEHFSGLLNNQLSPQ
value kind: IC50

• NCc1cc(=O)c2cc(-c3cccc4cccnc34)ccc2[nH]1 [Compound 1-65] = < 300 nM
• NCc1cc(=O)c2cc(-c3ccc(F)cc3)ccc2[nH]1 [Compound 1-11] = < 300 nM
• Cn1c(CN)cc(=O)c2ccccc21 [Compound 1-2] = > 1000 nM
• Cc1ccc(=O)n(-c2ccc3[nH]c(CN)cc(=O)c3c2)c1 [Compound 1-46] = < 300 nM
• NCc1cc(=O)c2ccccc2[nH]1 [Compound 1-1, 2-(Aminomethyl)quinolin-4(1H)-one] = < 300 nM
• NCc1cc(=O)c2cc(Br)ccc2[nH]1 [Compound 1-3] = < 300 nM
